The measurements presented in this section are drawn from ChEMBL document CHEMBL3102842.

# Test system: Leishmania infantum
# experimental.protocol: Antileishmanial activity against Leishmania infantum zymodeme MON-1 axenic amastigotes assessed as parasite survival after 24 hrs
# Assay type: functional, organism-based
# measurement.setup: zymodeme MON-1, 24 h
experimental.endpoint: EC95 (µg/mL)
Just the number in µg/mL, nothing appended.

// sample O=C1C[C@@H](c2ccccc2)C2(C(=O)Nc3ccccc32)[C@H](c2ccccc2)C1 , its EC95 was 78.3

In plain terms, O=C(CC(c1ccc(Cl)cc1)C1C(=O)Nc2ccccc21)c1ccccc1 (stereo not given) has a documented EC95 of 74

The recorded EC95 for entry O=C(CC(c1cccc(Cl)c1)C1C(=O)Nc2ccccc21)c1ccccc1 (stereo not given) equals 80.2

EC95 reading for Cc1ccc([C@@H]2CC(=O)C[C@@H](c3ccc(C)cc3)C23C(=O)Nc2ccccc23)cc1 : 69.4

Looking up O=C(C[C@@H](c1ccccc1)[C@H]1C(=O)Nc2ccccc21)c1ccccc1 (relative stereo) , I found its EC95 recorded as 75.6
